# procedure details: HUVEC growth inhibition – cell-based, human, primary screen (AID 575);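 note: 100% = median of untreated cell wells with 0.1% DMSO on each plate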
# condition description: HUVEC proliferation, CellTiter-Glo luminescence, 72 h; at 10 µM; hits give low values
readout label: viability (%)
Could you give me the number in %? Just the number is fine.

item_smiles=Cn1c(=O)c2c(-c3ccccc3)n(CCCN3CCOCC3)cc2n(C)c1=O readout_unit=% number=69.7

Look at this molecule and give its reported viability. `CN1CC[n+]2cnc3ccccc3c21`
108

Look at this molecule and give its reported viability. `O=C(COc1ccccc1F)NC1CC1`
88.7

Look at this molecule and give its reported viability. `COc1ccc(-c2cc(C(F)(F)F)n3nc(C(=O)N4CCOCC4)nc3n2)cc1`
101

Look at this molecule and give its reported viability. `COC(=O)c1cc2oc(C)cc2n1CC(=O)N(C)c1ccccc1`
83.2

Look at this molecule and give its reported viability. `CCOC(=O)c1cc2sccc2n1Cc1ccccc1`
97.9

Look at this molecule and give its reported viability. `COc1ccccc1-c1cc(C(=O)NCCCn2ccnc2)no1`
88.5
